Test system: HEK293 cells
Assay: Disaccharides to support growth of HEK293 cells in PFCDM
Format: cell-based
Conditions: 10 g/l sugar, seeding 1.0×10^6 cells/ml, 22 days
From the text: In (A) CHO-K1 cells were cultivated in a serum-free protein-free cell culture medium, HyQ PF-CHO, with 3.6 g/l of different sugars (maltose, sucrose, lactose, trehalose or glucose) as carbohydrate source. The viable cell densities (lined markers) and culture viabilities (marker only) of these cultures at the beginning and end of each passage over a period of 74 days were plotted. […]
QUANTITY_MEASURED: proliferation in serum-free culture medium with the sugar as sugar source

| COMPOUND | MEASURED_RESULT |
| --- | --- |
| OC[C@H]1O[C@@H](O[C@H]2[C@H](O)[C@@H](O)C(O)O[C@@H]2CO)[C@H](O)[C@@H](O)[C@H]1O (stereo partly shown) | not |
| OC[C@H]1O[C@@](CO)(O[C@H]2O[C@H](CO)[C@@H](O)[C@H](O)[C@H]2O)[C@@H](O)[C@@H]1O | not |
| OC[C@H]1O[C@H](O[C@H]2O[C@H](CO)[C@@H](O)[C@H](O)[C@H]2O)[C@H](O)[C@@H](O)[C@@H]1O | not |
